Target: T1, human matriptase-2 ECD protein his tag (human, UniProt Q8IU80 78-811)
T1 construct: also called human MTP-2 ECD; huMTP-2
T1 sequence: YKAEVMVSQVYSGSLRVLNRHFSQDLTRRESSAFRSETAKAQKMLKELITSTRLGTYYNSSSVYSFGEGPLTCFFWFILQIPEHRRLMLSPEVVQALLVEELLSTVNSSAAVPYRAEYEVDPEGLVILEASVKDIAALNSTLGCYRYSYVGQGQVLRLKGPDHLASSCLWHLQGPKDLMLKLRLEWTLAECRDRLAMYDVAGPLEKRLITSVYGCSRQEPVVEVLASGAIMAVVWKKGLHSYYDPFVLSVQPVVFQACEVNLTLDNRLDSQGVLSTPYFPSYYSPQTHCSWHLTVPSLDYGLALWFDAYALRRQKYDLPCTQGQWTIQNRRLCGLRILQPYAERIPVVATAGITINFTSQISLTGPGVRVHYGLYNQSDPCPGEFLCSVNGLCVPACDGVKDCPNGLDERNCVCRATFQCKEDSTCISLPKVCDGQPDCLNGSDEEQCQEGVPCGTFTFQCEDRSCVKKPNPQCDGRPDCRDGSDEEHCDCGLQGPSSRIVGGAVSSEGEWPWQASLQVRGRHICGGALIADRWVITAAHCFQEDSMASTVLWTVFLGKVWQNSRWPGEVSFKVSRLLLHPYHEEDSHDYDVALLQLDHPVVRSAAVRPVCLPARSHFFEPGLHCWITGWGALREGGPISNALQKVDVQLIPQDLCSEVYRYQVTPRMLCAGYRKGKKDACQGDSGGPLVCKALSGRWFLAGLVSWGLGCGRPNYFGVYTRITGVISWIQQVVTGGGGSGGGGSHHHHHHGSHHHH
Assay: SPR (Biacore 8K), huIgG4PE captured on anti-human Fc, MTP-2 ECD as analyte, 1:1 fit
reported.endpoint: koff (s⁻¹)
Please state the figure in s⁻¹; there is no need to write the unit.

Entry NORI-008 (antibody, human IgG4 S228P, kappa, V domains shown, human IgG4PE, kappa, in the in vitro assays; a mouse IgG1 format was used in one in vivo study only; also called NORI-008 hulgG4PE; NORI-008 IgG) VH: QVQLQESGPGLVKPSETLSLTCSVSGGSVSSGRYYWTWIRQPPGKGLEWIGYISNSGNTNYNPSLKSRVTISLDTSKKQFSLSLSAVTAADTAVYYCARGFIYDYWFDPWGQGSLVTVSS VL: DSQMTQSPSSLSASVGDRVTITCQASQDIDNYLNWYQQRPGKAPKLLIYDASKLETGVPSRFSGSGSGTDFTFTISSLQPEDFATYYCQQYGNLPITFGQGTRLDIKR : reported koff = ?
1.47e-05
